- Tested on: S. cerevisiae NKY1551 his4x/his4B, sporulating
- PROCEDURE_TEXT: HIS4 meiotic recombination assay sensitivity score (z-score vs DMSO controls); higher = stronger inhibition of sporulation/recombination, active = hit call of the paper
Counter-ions that a name gives are not always drawn.
Could you please report measured HIS4 meiotic recombination assay sensitivity score for the items listed next?

Bench note: what HIS4 meiotic recombination assay sensitivity score did CN1CCc2cc(Cl)c(O)cc2[C@@H](c2ccccc2)C1 (stock concentration (mM, diluted 1:100): 9.9) show? 3.2 (inactive)

Bench note: what HIS4 meiotic recombination assay sensitivity score did c1cnc(N2CCN(Cc3ccc4c(c3)OCO4)CC2)nc1 [Piribedil] (stock concentration (mM, diluted 1:100): 9.7) show? -0.82 (inactive)

Bench note: what HIS4 meiotic recombination assay sensitivity score did Nc1nc2ccc(Cl)cc2c2nc(-c3ccco3)nn12 (stock concentration (mM, diluted 1:100): 10) show? -0.12 (inactive)

Bench note: what HIS4 meiotic recombination assay sensitivity score did COc1ccc2[nH]c([S+]([O-])Cc3ncc(C)c(OC)c3C)nc2c1 (configuration not stated) [Omeprazole] (stock concentration (mM, diluted 1:100): 10) show? -1.05 (inactive)

Bench note: what HIS4 meiotic recombination assay sensitivity score did CC(C)c1ccc2oc3nc(N)c(C(=O)O)cc3c(=O)c2c1 [Amlexanox] (stock concentration (mM, diluted 1:100): 10) show? 0.07 (inactive)

Bench note: what HIS4 meiotic recombination assay sensitivity score did O=C1Nc2ccc(Cl)cc2[C@@](C#CC2CC2)(C(F)(F)F)O1 [Efavirenz] (stock concentration (mM, diluted 1:100): 10.1) show? -0.43 (inactive)

Bench note: what HIS4 meiotic recombination assay sensitivity score did CS(=O)(=O)c1ccc(-c2cc(Br)sc2-c2ccc(F)cc2)cc1 (stock concentration (mM, diluted 1:100): 10) show? 1.98 (inactive)

Bench note: what HIS4 meiotic recombination assay sensitivity score did CC[C@H]1OC(=O)[C@H](C)C(=O)[C@H](C)[C@@H](O[C@@H]2O[C@H](C)C[C@H](N(C)C)[C@H]2O)[C@](C)(OC)C[C@@H](C)C(=O)[C@H](C)[C@H]2N(CCCCn3cnc(-c4cccnc4)c3)C(=O)O[C@]12C [Telithromycin] (stock concentration (mM, diluted 1:100): 10) show? 0.14 (inactive)

Bench note: what HIS4 meiotic recombination assay sensitivity score did CN(C)CC[C@@H](c1ccc(Cl)cc1)c1ccccn1 [Dexchlorpheniramine maleate] (stock concentration (mM, diluted 1:100): 7) show? 2.35 (inactive)

Bench note: what HIS4 meiotic recombination assay sensitivity score did COC1=C(OC)C(=O)C(CCCCCCCCCCO)=C(C)C1=O [Idebenone] (stock concentration (mM, diluted 1:100): 10.2) show? -0.57 (inactive)

Bench note: what HIS4 meiotic recombination assay sensitivity score did CC(=O)CCCCn1c(=O)c2c(ncn2C)n(C)c1=O [Pentoxifylline] (stock concentration (mM, diluted 1:100): 10) show? -0.42 (inactive)

Bench note: what HIS4 meiotic recombination assay sensitivity score did CC(C)C[C@H](NC(=O)[C@@H](O)[C@H](N)Cc1ccccc1)C(=O)O [Bestatin] (stock concentration (mM, diluted 1:100): 10) show? -1.06 (inactive)

---

- Test system: S. cerevisiae NKY1551 his4x/his4B, sporulating
- PROCEDURE_TEXT: HIS4 meiotic recombination assay sensitivity score (z-score vs DMSO controls); higher = stronger inhibition of sporulation/recombination, active = hit call of the paper;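 active = HIS4 sensitivity z-score above 5 vs DMSO controls; inactive = score 5 or below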
Counter-ions that a name gives are not always drawn.
Give one outcome, nothing more. List: Y for active, N for inactive

Record lookup: outcome of this test for CN(C)CCC[C@@]1(c2ccc(F)cc2)OCc2cc(C#N)ccc21 [Escitalopram oxalate] (stock concentration (mM, diluted 1:100): 7.9) ? Y

Record lookup: outcome of this test for COc1ccc2[nH]c([S+]([O-])Cc3ncc(C)c(OC)c3C)nc2c1 (stereo not drawn) [Esomeprazole mg] (stock concentration (mM, diluted 1:100): 4.8) ? N

Record lookup: outcome of this test for CC(c1cc2ccccc2s1)N(O)C(N)=O (stereo not drawn) [Zileuton] (stock concentration (mM, diluted 1:100): 10) ? N
